Below is a list of entries, each paired with its recorded protein stability index value.
B1: POMT2 (parent)
chain: VKYNSCADRPFSAPWWFWLSLTGV

- Variants of: B1
- test.method.notes: protein stability index of a GFP-peptide fusion (GPS, HEK-293T) (PSI 1-6); higher = more stable;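 further: lentivirally expressed fusions sorted by FACS into six bins by GFP to DsRed ratio, PSI derived from sequencing read proportions per bin multiplied by bin number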
- condition.parameters: c terminus: a fixed tail appended
quantity.measured: protein stability index

variant.string	quantity.measured	value.observed
G23A	protein stability index	1.77
A13E	protein stability index	2.18
F17V	protein stability index	2.16
W18Y	protein stability index	2.04
A13R	protein stability index	1
C6N	protein stability index	1.02
Y3Q	protein stability index	1.41
W15K	protein stability index	3.58
S5D	protein stability index	4.19
G23M	protein stability index	1.55
N4E	protein stability index	3.12
W16Q	protein stability index	1.78
W15E	protein stability index	3.49
V24R	protein stability index	1.87
R9F	protein stability index	3.16
S5A	protein stability index	4.07
S20L	protein stability index	1.47
V1A	protein stability index	3.3
P10E	protein stability index	1.63
W18S	protein stability index	3.44
D8S	protein stability index	2.54
T22V	protein stability index	3.31
V24M	protein stability index	2.61
S20H	protein stability index	2.9
C6D	protein stability index	2.84
D8G	protein stability index	2.4
G23E	protein stability index	5.35
P14G	protein stability index	2.4
L21N	protein stability index	2.88
G23Q	protein stability index	4.6
K2Y	protein stability index	3.34
P14F	protein stability index	1.35
W18G	protein stability index	3.3
L19I	protein stability index	1.76
R9G	protein stability index	3.51
W18C	protein stability index	2.54
G23T	protein stability index	2.04
P14R	protein stability index	3.92
C6G	protein stability index	1.73
Y3P	protein stability index	2.55
N4V	protein stability index	3.46
A13H	protein stability index	1.18
T22N	protein stability index	1.29
D8T	protein stability index	3.21
R9L	protein stability index	2
D8W	protein stability index	1.26
